Listing of recorded pEC50 by entry.
biological target: human β3 adrenergic receptor (Homo sapiens, UniProt P13945); construct: expressed in transfected cells; host or cells: Chinese hamster ovary (CHO) cells, stably transfected; assay: Beta-3 agonist in vitro functional assay: cAMP production (LANCE TR-FRET) in CHO cells stably transfected with the cloned β3 receptor; assay type: cell-based; settings: Table 5; cAMP, CHO cells; read-out: Human β3 agonist functional activity
Sequence (P13945 whole entry): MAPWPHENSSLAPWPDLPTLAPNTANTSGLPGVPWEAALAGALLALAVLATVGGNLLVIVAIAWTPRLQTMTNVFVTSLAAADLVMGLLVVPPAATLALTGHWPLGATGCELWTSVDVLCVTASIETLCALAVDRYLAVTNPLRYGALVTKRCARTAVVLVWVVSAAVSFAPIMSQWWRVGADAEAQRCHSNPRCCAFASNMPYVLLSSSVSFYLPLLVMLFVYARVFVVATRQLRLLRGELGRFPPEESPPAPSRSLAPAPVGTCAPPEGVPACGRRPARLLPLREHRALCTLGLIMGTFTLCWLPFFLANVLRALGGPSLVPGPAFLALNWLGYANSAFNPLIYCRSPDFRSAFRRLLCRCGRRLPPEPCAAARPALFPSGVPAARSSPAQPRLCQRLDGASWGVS
pEC50: −log10 of the molar value.

{"compound string": "O=C(c1ccc(C[C@@H]2CC[C@H]([C@H](O)c3ccccc3)N2)cc1)N1CCC(S(=O)(=O)c2ccc(F)c(F)c2)CC1", "reported value": "7.00 to 8.00"}
{"compound string": "COC(=O)c1ccccc1C1CCN(C(=O)c2ccc(C[C@@H]3CC[C@H]([C@H](O)c4ccccc4)N3)cc2)CC1", "reported value": "7.00 to 8.00"}

Next item in the queue.
Sample O=C(c1ccc(C[C@@H]2CC[C@H]([C@H](O)c3ccccc3)N2)cc1)N1CCC(n2c(=O)[nH]c3nc(F)ccc32)CC1 ; pEC50 observed: 7.00 to 8.00

---

biological target: human β3 adrenergic receptor (Homo sapiens, UniProt P13945); construct: expressed in transfected cells; host or cells: Chinese hamster ovary (CHO) cells, stably transfected; test: Beta-3 agonist in vitro functional assay: cAMP production (LANCE TR-FRET) in CHO cells stably transfected with the cloned β3 receptor; assay type: cell-based; conditions: Table 4; cAMP, CHO cells; read-out: Human β3 agonist functional activity
pEC50: −log10 of the molar value.
measure name: pEC50

{"compound": "O=C(c1ccc(C[C@@H]2CC[C@H]([C@H](O)c3cccnc3)N2)cc1)N1CCC2c3ccccc3OC2C1 (stereo partly shown)", "study system": "human β3 adrenergic receptor (Homo sapiens, UniProt P13945)", "reported value": "8.00 to 9.00"}
{"compound": "CCOC(=O)C1(S(C)(=O)=O)CCCN(C(=O)c2ccc(C[C@@H]3CC[C@H]([C@H](O)c4ccccc4)N3)cc2)C1 (stereo partly shown)", "study system": "human β3 adrenergic receptor (Homo sapiens, UniProt P13945)", "reported value": "7.00 to 8.00"}

Sample O=C(c1ccc(C[C@@H]2CC[C@H]([C@H](O)c3ccccc3)N2)cc1)N1CC2CN(Cc3ccccn3)CC2C1 (stereo partly shown) ; pEC50 observed: 6.00 to 7.00

Sample Cn1ccnc1C1CCCCN1C(=O)c1ccc(C[C@@H]2CC[C@H]([C@H](O)c3ccccc3)N2)cc1 (stereo partly shown) ; pEC50 observed: 6.00 to 7.00

Sample COc1ccc2c(c1)C(=O)CC1(CCCN(C(=O)c3ccc(C[C@@H]4CC[C@H]([C@H](O)c5cccnc5)N4)cc3)C1)O2 (stereo partly shown) ; pEC50 observed: 6.00 to 7.00

Sample CN(C)C1CCN(C(=O)c2ccc(C[C@@H]3CC[C@H]([C@H](O)c4ccccc4)N3)cc2)C1 (stereo partly shown) ; pEC50 observed: 6.00 to 7.00

Sample CCOC(=O)C1CCCN(C(=O)c2ccc(C[C@@H]3CC[C@H]([C@H](O)c4ccccc4)N3)cc2)C1 (stereo partly shown) ; pEC50 observed: 7.00 to 8.00

---

molecular target: human β3 adrenergic receptor (Homo sapiens); construct: expressed in transfected cells; host or cells: Chinese hamster ovary (CHO) cells, stably transfected; test: Beta-3 agonist in vitro functional assay: cAMP production (LANCE TR-FRET) in CHO cells stably transfected with the cloned β3 receptor; type: cell-based; settings: Table 9; Beta-3 agonist in vitro functional assay; read-out: Human β3 agonist functional activity
pEC50: −log10 of the molar value.
measure name: pEC50

Worked cases, answers included:
{"compound string": "CCOC(=O)N1CCN(C(=O)c2ccc(C[C@@H]3CC[C@H]([C@H](O)c4ccccc4)N3)cc2)CC1", "study system": "human β3 adrenergic receptor (Homo sapiens)", "pEC50": "6.00 to 7.00"}
{"compound string": "O=C(c1ccc(C[C@@H]2CC[C@H]([C@H](O)c3ccccc3)N2)cc1)N1CCN(c2ncccc2F)CC1", "study system": "human β3 adrenergic receptor (Homo sapiens)", "pEC50": "6.00 to 7.00"}
{"compound string": "O=C(c1ccc(C[C@@H]2CC[C@H]([C@H](O)c3ccccc3)N2)cc1)N1CCN(Cc2ncco2)CC1", "study system": "human β3 adrenergic receptor (Homo sapiens)", "pEC50": "7.00 to 8.00"}

Next item in the queue.
Sample COC(=O)c1cccnc1N1CCN(C(=O)c2ccc(C[C@@H]3CC[C@H]([C@H](O)c4ccccc4)N3)cc2)CC1 ; pEC50 observed: 7.00 to 8.00

---

Listing of recorded EC50 by entry.
molecular target: human β3 adrenergic receptor (Homo sapiens); construct: expressed in transfected cells; host or cells: Chinese hamster ovary (CHO) cells, stably transfected; experiment: Beta-3 agonist in vitro functional assay: cAMP production (LANCE TR-FRET) in CHO cells stably transfected with the cloned β3 receptor; assay type: cell-based; conditions: Table 10; Beta-3 agonist in vitro functional assay; read-out: Human β3 agonist functional activity

Worked cases, answers included:
{"compound": "CC(C(=O)N1CCc2ccncc2C1)N1CCN(C(=O)c2ccc(C[C@@H]3CC[C@H]([C@H](O)c4ccccc4)N3)cc2)CC1 (stereo partly drawn)", "EC50": "10 to 99.9 nM"}
{"compound": "CC(C(=O)N1CC=CCC1)N1CCN(C(=O)c2ccc(C[C@@H]3CC[C@H]([C@H](O)c4ccccc4)N3)cc2)CC1 (stereo partly drawn)", "EC50": "10 to 99.9 nM"}

Next item in the queue.
Sample Cc1c(CNC(=O)C(C)N2CCN(C(=O)c3ccc(C[C@@H]4CC[C@H]([C@H](O)c5ccccc5)N4)cc3)CC2)cnn1C (stereo partly drawn) ; EC50 observed: 10 to 99.9 nM

---

target: human β3 adrenergic receptor (Homo sapiens); construct: expressed in transfected cells; host or cells: Chinese hamster ovary (CHO) cells, stably transfected; test: Beta-3 agonist in vitro functional assay: cAMP production (LANCE TR-FRET) in CHO cells stably transfected with the cloned β3 receptor; type: cell-based; details: Table 10; Beta-3 agonist in vitro functional assay; read-out: Human β3 agonist functional activity
pEC50: −log10 of the molar value.
measure name: pEC50

{"molecule": "CC(C(=O)N1CC(O)(c2ccccc2)C1)N1CCN(C(=O)c2ccc(C[C@@H]3CC[C@H]([C@H](O)c4ccccc4)N3)cc2)CC1 (stereo partly shown) [Example 474]", "study system": "human β3 adrenergic receptor (Homo sapiens)", "pEC50": "8.00 to 9.00"}
{"molecule": "CC(C(=O)NCC1CCCO1)N1CCN(C(=O)c2ccc(C[C@@H]3CC[C@H]([C@H](O)c4ccccc4)N3)cc2)CC1 (stereo partly shown) [Example 455]", "study system": "human β3 adrenergic receptor (Homo sapiens)", "pEC50": "7.00 to 8.00"}
{"molecule": "CC(C(=O)N1CCc2oncc2C1)N1CCN(C(=O)c2ccc(C[C@@H]3CC[C@H]([C@H](O)c4ccccc4)N3)cc2)CC1 (stereo partly shown) [Example 503]", "study system": "human β3 adrenergic receptor (Homo sapiens)", "pEC50": "7.00 to 8.00"}
{"molecule": "CC(C(=O)NCc1cn2ccsc2n1)N1CCN(C(=O)c2ccc(C[C@@H]3CC[C@H]([C@H](O)c4ccccc4)N3)cc2)CC1 (stereo partly shown) [Example 467]", "study system": "human β3 adrenergic receptor (Homo sapiens)", "pEC50": "7.00 to 8.00"}
{"molecule": "CC(C(=O)N1CCCCCC1)N1CCN(C(=O)c2ccc(C[C@@H]3CC[C@H]([C@H](O)c4ccccc4)N3)cc2)CC1 (stereo partly shown) [Example 511]", "study system": "human β3 adrenergic receptor (Homo sapiens)", "pEC50": "6.00 to 7.00"}
{"molecule": "Cc1nonc1CN(C)C(=O)C(C)N1CCN(C(=O)c2ccc(C[C@@H]3CC[C@H]([C@H](O)c4ccccc4)N3)cc2)CC1 (stereo partly shown) [Example 512]", "study system": "human β3 adrenergic receptor (Homo sapiens)", "pEC50": "7.00 to 8.00"}
{"molecule": "Cc1nc2c(o1)CN(C(=O)C(C)N1CCN(C(=O)c3ccc(C[C@@H]4CC[C@H]([C@H](O)c5ccccc5)N4)cc3)CC1)CC2 (stereo partly shown) [Example 504]", "study system": "human β3 adrenergic receptor (Homo sapiens)", "pEC50": "8.00 to 9.00"}
{"molecule": "CC(C(=O)NCCC1CC1)N1CCN(C(=O)c2ccc(C[C@@H]3CC[C@H]([C@H](O)c4ccccc4)N3)cc2)CC1 (stereo partly shown) [Example 448]", "study system": "human β3 adrenergic receptor (Homo sapiens)", "pEC50": "7.00 to 8.00"}
{"molecule": "CC(C(=O)N1CCCC2(CCO2)C1)N1CCN(C(=O)c2ccc(C[C@@H]3CC[C@H]([C@H](O)c4ccccc4)N3)cc2)CC1 (stereo partly shown) [Example 495]", "study system": "human β3 adrenergic receptor (Homo sapiens)", "pEC50": "7.00 to 8.00"}
{"molecule": "CC(C(=O)N1Cc2cncnc2C1)N1CCN(C(=O)c2ccc(C[C@@H]3CC[C@H]([C@H](O)c4ccccc4)N3)cc2)CC1 (stereo partly shown) [Example 483]", "study system": "human β3 adrenergic receptor (Homo sapiens)", "pEC50": "6.00 to 7.00"}

Sample COCCNC(=O)C(C)N1CCN(C(=O)c2ccc(C[C@@H]3CC[C@H]([C@H](O)c4ccccc4)N3)cc2)CC1 (stereo partly shown) [Example 442] ; pEC50 observed: 6.00 to 7.00

Sample CC(C)CN(C)C(=O)C(C)N1CCN(C(=O)c2ccc(C[C@@H]3CC[C@H]([C@H](O)c4ccccc4)N3)cc2)CC1 (stereo partly shown) [Example 518] ; pEC50 observed: 6.00 to 7.00

Sample CC(C(=O)N1Cc2cccnc2C1)N1CCN(C(=O)c2ccc(C[C@@H]3CC[C@H]([C@H](O)c4ccccc4)N3)cc2)CC1 (stereo partly shown) [Example 482] ; pEC50 observed: 7.00 to 8.00
